Values from patent US9718790B2

Molecular target: human P2X3 receptor (Homo sapiens (Human), UniProt P56373)
Sequence (P56373 whole entry): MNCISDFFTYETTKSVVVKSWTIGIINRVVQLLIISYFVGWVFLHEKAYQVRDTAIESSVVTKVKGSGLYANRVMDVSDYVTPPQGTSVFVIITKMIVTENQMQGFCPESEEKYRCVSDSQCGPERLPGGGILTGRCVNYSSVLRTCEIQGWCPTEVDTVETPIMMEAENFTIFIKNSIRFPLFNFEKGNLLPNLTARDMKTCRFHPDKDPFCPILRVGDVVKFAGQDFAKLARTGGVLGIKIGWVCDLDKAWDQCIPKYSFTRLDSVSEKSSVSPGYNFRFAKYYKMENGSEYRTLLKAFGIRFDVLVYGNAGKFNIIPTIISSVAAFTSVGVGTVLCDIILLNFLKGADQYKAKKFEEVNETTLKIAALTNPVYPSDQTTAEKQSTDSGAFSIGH
Assay: Evaluation of human P2X3 receptor inhibitory activity (Fluo-3 calcium fluorescence, FDSS 3000, ATP stimulation);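 note: stimulus was 50 nM ATP with fluorescence followed for 3 min, and the response per well was peak post-ATP fluorescence divided by the reading at measurement start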
Type: cell-based
Conditions: C6BU-1 cells stably expressing human P2X3 receptor, Fluo-3 fluorescence, FDSS 3000
pIC50: −log10 of the molar value.
Kindly return yes (1) if reported pIC50 is no lower than 7; return no (0) if it is lower.

| Compound | Tgt | Assigned category |
| --- | --- | --- |
| C[C@@H](C(=O)O)[C@H](C)n1c(=O)[nH]/c(=N\c2ccc3[nH]c(=O)[nH]c(=O)c3c2)n(Cc2ccc(Cl)cc2)c1=O [Compound I-1818] | human P2X3 receptor (Homo sapiens (Human), UniProt P56373) | no (0) |
| CC(C)Cc1ccc(/N=c2\[nH]c(=O)n(CC(C)(CO)CO)c(=O)n2Cc2ccc(Cl)cc2)cc1Cl [Compound I-1637] | human P2X3 receptor (Homo sapiens (Human), UniProt P56373) | yes (1) |
| COC(=O)[C@@H](C)Cn1c(=O)[nH]/c(=N\c2ccc(C=C(C)C)c(C)c2)n(Cc2ccc(Cl)cc2)c1=O [Compound I-0948] | human P2X3 receptor (Homo sapiens (Human), UniProt P56373) | yes (1) |
| CCOc1ccc(/N=c2\[nH]c(=O)n([C@@H](C)[C@@H](C)C(=O)O)c(=O)n2Cc2ccc(Cl)cc2)cc1Cl [Compound I-0922] | human P2X3 receptor (Homo sapiens (Human), UniProt P56373) | yes (1) |
| CCc1oc2ccc(/N=c3\[nH]c(=O)n(CCCO)c(=O)n3Cc3ccc(Cl)cc3)cc2c1C [Compound I-1625] | human P2X3 receptor (Homo sapiens (Human), UniProt P56373) | yes (1) |
| COc1cc(/N=c2\[nH]c(=O)n(C[C@H](C)C(=O)O)c(=O)n2Cc2ccc(C)cc2)ccc1OC(C)C [Compound I-1135] | human P2X3 receptor (Homo sapiens (Human), UniProt P56373) | yes (1) |
| C[C@@H](C(=O)O)[C@H](C)n1c(=O)[nH]/c(=N\c2ccc3[nH]c(S)nc3c2)n(Cc2ccc(Cl)cc2)c1=O [Compound I-1822] | human P2X3 receptor (Homo sapiens (Human), UniProt P56373) | no (0) |
| COC(=O)[C@@H](C)Cn1c(=O)[nH]/c(=N\c2ccc(OCCC(C)C)cc2)n(Cc2ccc(C)cc2)c1=O [Compound I-1049] | human P2X3 receptor (Homo sapiens (Human), UniProt P56373) | no (0) |
| CCc1oc2ccc(/N=c3\[nH]c(=O)n(C[C@H]4COC(C)(C)O4)c(=O)n3Cc3ccc(Cl)cc3)cc2c1C [Compound I-1604] | human P2X3 receptor (Homo sapiens (Human), UniProt P56373) | yes (1) |
| CCCOc1ccc(/N=c2\[nH]c(=O)n([C@@H](C)[C@@H](C)C(=O)O)c(=O)n2Cc2ccc(Cl)cc2)cc1 [Compound I-0920] | human P2X3 receptor (Homo sapiens (Human), UniProt P56373) | yes (1) |
| COc1ccc(Oc2ccc(/N=c3\[nH]c(=O)n(CC(=O)NCCO)c(=O)n3Cc3ccc(Cl)cc3)cc2)cn1 [Compound I-1858] | human P2X3 receptor (Homo sapiens (Human), UniProt P56373) | yes (1) |
| COc1ccc(Oc2ccc(/N=c3\[nH]c(=O)n(CCCO)c(=O)n3Cc3ccc(Cl)cc3)cc2)cn1 [Compound I-1733] | human P2X3 receptor (Homo sapiens (Human), UniProt P56373) | yes (1) |
| CCOC(=O)CCn1c(=O)[nH]/c(=N\c2ccc(Oc3ccc(F)cc3)cc2)n(Cc2ccc(Cl)cc2)c1=O [Compound I-1872] | human P2X3 receptor (Homo sapiens (Human), UniProt P56373) | yes (1) |
| CCc1cc2cc(/N=c3\[nH]c(=O)n(C[C@H](C)C(=O)OC)c(=O)n3Cc3ccc(Cl)cc3)ccc2s1 [Compound I-1947] | human P2X3 receptor (Homo sapiens (Human), UniProt P56373) | no (0) |
| CCCc1nc2ccc(/N=c3\[nH]c(=O)n(CCC(=O)OCC)c(=O)n3Cc3ccc(C)cc3)cc2s1 [Compound I-1558] | human P2X3 receptor (Homo sapiens (Human), UniProt P56373) | yes (1) |
| COC(=O)[C@@H](C)Cn1c(=O)[nH]/c(=N\c2ccc(Br)cc2)n(Cc2ccc(C)cc2)c1=O [Compound I-1076] | human P2X3 receptor (Homo sapiens (Human), UniProt P56373) | no (0) |
| COC(=O)CCn1c(=O)[nH]/c(=N\Nc2ccc(OC)cc2)n(Cc2ccc(C)cc2)c1=O [Compound I-1801] | human P2X3 receptor (Homo sapiens (Human), UniProt P56373) | no (0) |
| Cc1ccc(Cn2c(=O)n([C@@H](C)[C@@H](C)C(=O)O)c(=O)[nH]/c2=N\c2ccc(OCC3CC3)cc2)cc1 [Compound I-0972] | human P2X3 receptor (Homo sapiens (Human), UniProt P56373) | yes (1) |
| Cc1cc(/N=c2\[nH]c(=O)n(CC3(CO)COC3)c(=O)n2Cc2ccc(Cl)cc2)ccc1OC(C)C [Compound I-0906] | human P2X3 receptor (Homo sapiens (Human), UniProt P56373) | yes (1) |
| CCn1c2ccccc2c2cc(/N=c3\[nH]c(=O)n([C@@H](C)[C@@H](C)C(=O)O)c(=O)n3Cc3ccc(Cl)cc3)ccc21 [Compound I-1815] | human P2X3 receptor (Homo sapiens (Human), UniProt P56373) | no (0) |
| CCc1nc2ccc(/N=c3\[nH]c(=O)n(CC(C)(C)C(=O)OC)c(=O)n3Cc3ccc(C)cc3)cc2s1 [Compound I-1573] | human P2X3 receptor (Homo sapiens (Human), UniProt P56373) | yes (1) |
| CCc1nc2ccc(/N=c3\[nH]c(=O)n(CC)c(=O)n3Cc3ccc(Cl)cc3)cc2s1 [Compound I-1703] | human P2X3 receptor (Homo sapiens (Human), UniProt P56373) | yes (1) |
| CCc1oc2ccc(/N=c3\[nH]c(=O)n(C[C@H](CC)NC(C)=O)c(=O)n3Cc3ccc(Cl)cc3)cc2c1C [Compound I-1708] | human P2X3 receptor (Homo sapiens (Human), UniProt P56373) | yes (1) |
